biological target: recombinant human CD200 Fc Chimera (human) (UniProt P41217); experiment: SPR (Biacore 3000), CD200-Fc captured by anti-human Fc on CM5, Fab injected, 1:1 Langmuir
Metric: Kd (nM)
Lab book: enter the figure in nM, no units written.

Task: Please give the measured Kd for this binder: TPP-115 (Fab, V domains shown) VH: QVQLVQSGAEVKKPGASVKVSCKASGYSFTDYIILWVRQAPGQGLEWMGHIDPYYGSSNYNLKFKGRVTMTRDTSISTAYMELSRLRSDDTAVYYCARSKRDYFDYWGQGTLVTVSS VL: DIQMTQSPSSLSASVGDRVTITCKASQDINSYLSWFQQKPGKAPKSLIYRANRLVDGVPSRFSGSGSGTDFTLTISSLQPEDFATYYCLQYDEFPYTFGQGTKLEIK
Result: 4.04

Task: Name the recorded Kd for TPP-139 (Fab, V domains shown) VH: QVQLVQSGSELKKPGASVKVSCKASGYSFTDYIILWVRQAPGQGLEWMGHIDPYYGSSNYNLKFKGRFVFSLDTSVSTAYLQISSLKAEDTAVYYCARSKRDYFDYWGQGTLVTVSS VL: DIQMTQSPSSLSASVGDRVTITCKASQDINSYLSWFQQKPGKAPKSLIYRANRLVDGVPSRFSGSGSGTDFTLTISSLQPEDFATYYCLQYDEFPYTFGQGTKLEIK .
Result: 3.71

Task: Request the reported Kd associated with TPP-103 (Fab, V domains shown) VH: QVQLVQSGAEVKKPGASVKVSCKASGYSFTDYIILWVRQAPGQGLEWMGHIDPYYGSSNYNLKFKGRVTMTRDTSTSTVYMELSSLRSEDTAVYYCARSKRDYFDYWGQGTLVTVSS VL: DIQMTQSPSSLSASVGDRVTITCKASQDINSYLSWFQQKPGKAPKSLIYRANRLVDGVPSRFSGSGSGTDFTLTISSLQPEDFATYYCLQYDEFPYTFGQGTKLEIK
Result: 10.1
